Tested on: HEK-293T
Assay: Incucyte cell viability with HEK293T; further: unitless GR value; below 1 slowed growth and below 0 cell loss
Format: toxicity, cell-based
Settings: human, 24 h, 10 µM, compound concentration 10 uM, replicate number 1
property name: Growth Rate

{"columns": ["molecule", "observed measurement"],
 "data": [
  ["Nc1ccc(-c2cccs2)cc1NC(=O)c1ccc2nc(N3CCNCC3)ccc2c1", 0.92],
  ["COC(=O)[C@@H]1CC2=CC(=O)CC[C@]2(C)[C@@]23O[C@@H]2C[C@@]2(C)[C@@H](CC[C@@]24CCC(=O)O4)[C@H]13 [EPLERENONE]", 0.61],
  ["CSc1cccc(Nc2ncc3cc(-c4c(Cl)cccc4Cl)c(=O)n(C)c3n2)c1", -0.41],
  ["COc1cc(-c2cn(C)c(=O)c3cnccc23)cc(OC)c1CN(C)CC(=O)NCCOCCOCCNc1cccc2c1C(=O)N(C1CCC(=O)NC1=O)C2=O (stereo not drawn)", 0.8],
  ["CC(C)c1cc(C(=O)N2Cc3ccc(CN4CCN(C)CC4)cc3C2)c(O)cc1O [ONALESPIB]", -0.26],
  ["CC(C)NCC(O)COC(Cn1c2ccccc2c2ccccc21)Cn1c2ccccc2c2ccccc21 (stereo not drawn)", 1],
  ["CC(=O)N[C@@H](Cc1ccc(O)cc1)C(=O)N[C@H](C(=O)N[C@@H](C)C(=O)N[C@@H](CC(=O)O)C(=O)CCl)C(C)C", 0.82],
  ["Cc1cc(C(=O)N2CCN(C3CN(C(=O)c4ccc(-c5ccccc5)cc4)C3)CC2)no1", 0.61]
]}

----------
Tested on: HEK-293T
Assay: Incucyte cell viability with HEK293T; further: unitless GR value; below 1 slowed growth and below 0 cell loss
Assay type: toxicity, cell-based
Details: human, 24 h, 10 µM, compound concentration 10 uM, replicate number 2
Peptide text beside a SMILES is read from it. * marks the point of attachment. Cbz = O=C(OCc1ccccc1)*; CH2F = FC*
Criterion: Growth Rate strictly under 0.8. Met: MET. Not met: NOT MET.

{"columns": ["compound", "assigned label"],
 "data": [
  ["CC1(C)c2cccc(C(=O)NO)c2CN1c1cnc(C(F)(F)F)cn1", "MET"],
  ["O=C(CCCCCCNC(=O)c1cnc(N(c2ccccc2)c2ccccc2)nc1)NO", "NOT MET"],
  ["CCCOC(=O)N1CCN(C(=O)c2ccc3c(Cl)cc(-c4ccc(C5(N)CC5)cc4)nc3c2)C[C@H]1C", "MET"],
  ["C=C(C)[C@@H](CC=C(C)C)C[C@@]12C[C@@H](CC=C(C)C)C(C)(C)[C@@](CC=C(C)C)(C(=O)C(C(=O)c3ccc(O)c(O)c3)=C1O)C2=O", "NOT MET"],
  ["O=C(NCC1CCOCC1)c1n[nH]cc1NC(=O)c1c(F)cccc1F", "MET"],
  ["COc1ccc2c(c1)OC(C)(C)C(c1ccccc1)C2c1ccc(OCCN2CCCC2)cc1 (configuration not stated)", "NOT MET"],
  ["CN1CCN(c2cc(C(=O)Nc3ncc(SCc4cccc(C(F)(F)F)c4)s3)ccn2)CC1", "MET"],
  ["CN(C)CCCN(CC[C@H](N)C(=O)O)C[C@H]1O[C@@H](n2cnc3c(N)ncnc32)[C@H](O)[C@@H]1O.O=C(O)C(F)(F)F", "NOT MET"],
  ["Nc1ccccc1NC(=O)c1ccc(CNc2nccc(-c3cccnc3)n2)cc1", "MET"],
  ["CC1=NN(c2ccc(C(=O)O)cc2)C(=O)/C1=C/c1ccc(-c2cc(C)c(C)cc2[N+](=O)[O-])o1", "NOT MET"],
  ["O=C(NO)C(c1ccc(-c2ncc(C(F)(F)F)cn2)cc1)c1ccccc1F (configuration not stated)", "MET"],
  ["COc1ccc(/C=C/C(=O)NO)c(-c2ccc(-c3ccccc3)cc2)c1", "MET"],
  ["COC(=O)CC[C@H](NC(=O)[C@H](Cc1c[nH]c2ccccc12)NC(=O)OCc1ccccc1)C(=O)N[C@@H](Cc1cnc[nH]1)C(=O)N[C@@H](CC(=O)OC)C(=O)CF (Cbz-WE(OMe)HD(OMe)-CH2F)", "NOT MET"],
  ["Cl.Cl.O=C(O)Cn1nnc(-c2ccc(CN(CCCCOc3ccc(CN4CCCC4)cc3)CCc3ccccc3)cc2)n1", "NOT MET"],
  ["COc1cc2c(NC3CCN(C)CC3)nc(N3CCCN(C)CC3)nc2cc1OCCCN(C)C", "NOT MET"],
  ["O=C(O)/C(S)=C/c1c[nH]c2ccc(F)cc12", "NOT MET"],
  ["CCC(CC)(NC(=O)C(C)C)C(=O)N[C@@H](CCCNC(=N)N)C(=O)NC1(C(=O)NC(c2ccc(F)cc2)c2ccc(F)cc2)CCCC1", "NOT MET"],
  ["CCCOc1ccc(CCc2nc3cc(-c4c(C)noc4C)ccc3n2CCN2CCOCC2)cc1", "MET"],
  ["CCC(=O)N1CCOc2c(cc(-c3cc(OC)cc(OC)c3)cc2C(=O)N[C@H]2CCCN(C)C2)C1", "MET"],
  ["CCN1C(C)(C)CC(Oc2ccc(C(=O)Nc3ccc(NC(=O)Nc4cc(C(C)(C)C)on4)cc3)nc2)CC1(C)C", "MET"],
  ["CC(=O)Nc1ccc(-c2cc(-c3ccccc3)nc3cc(C(=O)NCCCn4ccnc4)nn23)cc1", "MET"],
  ["Cc1ccc(F)c2cc(C(=O)N[C@@H]3CCC[C@H](N4CC[C@H](N(C)S(C)(=O)=O)C4)C3)[nH]c12", "MET"],
  ["COCCOCCn1nc2c(c1C)-c1c(Cl)ccc3c1c(C)c(C(=O)O)n3CCCOc1cc(cc3c(F)c(Cl)ccc13)CCc1cc(nn1C)CSC2", "MET"],
  ["CCNC(=O)NCCSC[C@H]1O[C@@H](n2cnc3c(N)ncnc32)[C@H](O)[C@@H]1O", "NOT MET"],
  ["COc1cc2c(NC3CCN(CC4CCCCC4)CC3)nc(N3CCCN(C(C)C)CC3)nc2cc1OCCCN1CCCCC1", "MET"],
  ["CC(C)[C@@H]1C(=O)N(S(C)(=O)=O)[C@@H]2CCN(C(=O)/C=C/CN3CCCCC3)[C@H]21.Cl", "NOT MET"],
  ["O=C1/C(=N/Nc2ccc(S(=O)(=O)O)cc2)C(c2ccc([N+](=O)[O-])cc2)=NN1c1ccccc1", "NOT MET"],
  ["CCCn1/c(=N/C(=O)c2cccc(C(N)=O)c2)[nH]c2ccccc21", "NOT MET"],
  ["O=C(NCC1(c2nc(-c3ccccc3)cs2)CCOCC1)c1cccc(-c2noc(C(F)(F)F)n2)c1", "MET"]
]}

# credit: ChEMBL document CHEMBL5724709
